system: Streptococcus pneumoniae; experiment: Determination of MIC values (BHI broth, 96 well microtiter plate); type: cell-based; settings: Streptococcus pneumoniae; BHI broth, 37° C., about 16 hours; read-out: MIC S. pneu
Listing of recorded MIC by entry.

Which value of MIC has been reported for N#Cc1ccc2[nH]cc(-c3cc(Cl)c4ccc(Cl)cc4n3)c2c1 in the records?
> 25 µg/mL

Which value of MIC has been reported for Cc1ccc2ccc(-c3c[nH]c4cc(F)ccc34)nc2c1 in the records?
> 25 µg/mL

Which value of MIC has been reported for CC(C)N(CC#Cc1ccc2nc(-c3cn(C)c4ccc(Br)cc34)cc(C(=O)NCCN)c2c1)C(C)C in the records?
< 7 µg/mL

Which value of MIC has been reported for NCCNC(=O)c1cc(-c2c[nH]c3ccc(Br)cc23)nc2cc(Cl)c(C#CCN3CCSCC3)cc12 in the records?
< 7 µg/mL

Which value of MIC has been reported for COc1ccc2nc(-c3c[nH]c4ccc(Cl)cc34)ccc2c1 in the records?
< 7 µg/mL

====

Listing of recorded MIC by entry.
system: methicillin-resistant Staphylococcus aureus (MRSA); experiment: Determination of MIC values (BHI broth, 96 well microtiter plate); assay type: cell-based; settings: Staphylococcus aureus, MRSA; BHI broth, overnight 37° C.; read-out: MIC MRSA

Guide cases for MIC, answers given:
INSERT INTO measurements (molecule, result) VALUES
  ('O=C(O)c1cc(-c2c[nH]c3ccc(Br)cc23)nc2ccc(C#CCN3CCNCC3)cc12 [Example 207]', '> 25 µg/mL'),
  ('Clc1ccc2nc(-c3c(-c4ccccc4)[nH]c4ccccc34)ccc2c1 [Example 203]', '> 25 µg/mL'),
  ('NCCNC(=O)c1cc(-c2c[nH]c3ccc(Br)cc23)nc2c(Cl)cccc12 [Example 318]', '< 7 µg/mL'),
  ('NCc1ccc(CNC(=O)c2cc(-c3c[nH]c4c(Cl)cccc34)nc3ccccc23)cc1 [Example 260]', '< 25 µg/mL');

Form field - read-out: MIC; system: methicillin-resistant Staphylococcus aureus (MRSA); submitted item: CCB(OC)C(=O)c1cc(-c2c[nH]c3ccc(Br)cc23)nc2cc(Br)ccc12 [Example 375]
> 25 µg/mL

====

system: Streptococcus pneumoniae; assay: Determination of MIC values (BHI broth, 96 well microtiter plate); type: cell-based; settings: Streptococcus pneumoniae; S. pneu; BHI broth, overnight 37° C.; read-out: MIC S. pneu
measurement label: MIC

Guide cases for MIC, answers given:
INSERT INTO results (compound, assay_target, measurement_label, result) VALUES
  ('Cn1cc(-c2cc(C(=O)NCc3ccc(CN)cc3)c3cc(C#CCNCCc4ccc(Cl)cc4)ccc3n2)c2cc(Br)ccc21', 'Streptococcus pneumoniae', 'MIC', '< 7 µg/mL'),
  ('Brc1ccc2[nH]cc(-c3nc4ccc(I)cc4c4c3CCO4)c2c1', 'Streptococcus pneumoniae', 'MIC', '< 7 µg/mL'),
  ('CN(C)CCNCC#Cc1ccc2nc(-c3cn(C)c4ccc(Br)cc34)cc(C(=O)NCc3ccc(CN)cc3)c2c1', 'Streptococcus pneumoniae', 'MIC', '< 7 µg/mL'),
  ('NCc1ccc(CNC(=O)c2cc(-c3c[nH]c4c(Br)cccc34)nc3ccccc23)cc1', 'Streptococcus pneumoniae', 'MIC', '< 25 µg/mL'),
  ('Clc1ccc2c(-c3cc(Cl)c4ccccc4n3)c[nH]c2c1', 'Streptococcus pneumoniae', 'MIC', '< 7 µg/mL');

Which value of MIC has been reported for NCC1CCCC(CNC(=O)c2cc(-c3c[nH]c4ccc(Br)cc34)nc3cc(F)ccc23)C1 (stereo not drawn) in the records?
< 7 µg/mL

====

Listing of recorded MIC by entry.
system: Streptococcus pneumoniae; experiment: Determination of MIC values (BHI broth, 96 well microtiter plate); assay type: cell-based; settings: Streptococcus pneumoniae; S. pneu; BHI broth, overnight 37° C.; read-out: MIC S. pneu

Guide cases for MIC, answers given:
INSERT INTO measurements (compound, assay_target, measurement_label, result) VALUES
  ('NCC1CCC(CNC(=O)c2cc(-c3c[nH]c4ccc(Br)cc34)nc3cc(Cl)c(I)cc23)CC1 (stereo not drawn) [Example 244]', 'Streptococcus pneumoniae', 'MIC', '< 7 µg/mL'),
  ('NCc1ccc(CNC(=O)c2cc(-c3c[nH]c4ccc(Br)cc34)nc3c(C#CCNCCc4ccc(Cl)cc4)cccc23)cc1 [Example 301]', 'Streptococcus pneumoniae', 'MIC', '< 25 µg/mL'),
  ('CC(=O)Oc1cccc2[nH]cc(-c3cc(Cl)c4ccccc4n3)c12 [Example 351]', 'Streptococcus pneumoniae', 'MIC', '< 7 µg/mL'),
  ('NCc1ccc(CNC(=O)c2cc(-c3c[nH]c4ccc(Br)cc34)nc3c(C#CCN4CCCCC4)cccc23)cc1 [Example 263]', 'Streptococcus pneumoniae', 'MIC', '< 7 µg/mL'),
  ('O=[N+]([O-])c1cccc2nc(-c3c[nH]c4ccc(Cl)cc34)ccc12 [Example 385]', 'Streptococcus pneumoniae', 'MIC', '> 25 µg/mL');

Form field - read-out: MIC; system: Streptococcus pneumoniae; submitted item: Cn1cc(-c2cc(C(=O)O)c3ccc(F)cc3n2)c2cc(Br)ccc21 [Example 310]
< 25 µg/mL

====

tested on: Streptococcus pneumoniae; test: Determination of MIC values (BHI broth, 96 well microtiter plate); type: cell-based; conditions: Streptococcus pneumoniae; S. pneu; BHI broth, overnight 37° C.; read-out: MIC S. pneu
measurement label: MIC

Guide cases for MIC, answers given:
INSERT INTO results (compound, assay_target, result) VALUES
  ('NCc1ccc(CNC(=O)c2cc(-c3c[nH]c4ccc(Br)cc34)nc3cc(Cl)c(C#CCN4CCSCC4)cc23)cc1 [Example 272]', 'Streptococcus pneumoniae', '< 7 µg/mL'),
  ('NCCNC(=O)c1cc(-c2c[nH]c3ccc(Cl)cc23)nc2cc(Br)ccc12 [Example 312]', 'Streptococcus pneumoniae', '< 7 µg/mL'),
  ('NCc1ccc(CNC(=O)c2cc(-c3c[nH]c4ccc(Cl)cc34)nc3c(Br)cccc23)cc1 [Example 231]', 'Streptococcus pneumoniae', '< 7 µg/mL'),
  ('Cc1cccc2c(-c3ccc4cc(Cl)ccc4n3)c[nH]c12 [Example 291]', 'Streptococcus pneumoniae', '> 25 µg/mL'),
  ('Cn1cc(-c2cc(C(=O)NC3CCC(N)CC3)c3cc(Cl)ccc3n2)c2cc(Br)ccc21 (centres unmarked) [Example 371]', 'Streptococcus pneumoniae', '< 7 µg/mL'),
  ('NCc1ccc(CNC(=O)c2cc(-c3c[nH]c4ccc(Br)cc34)nc3ccc(C#CCNCCc4ccc(Cl)cc4)cc23)cc1 [Example 235]', 'Streptococcus pneumoniae', '< 7 µg/mL');

Here's the next entry for you.
Which value of MIC has been reported for Cn1cc(-c2cc(C(=O)NCc3cccc(CN)c3)c3ccc(I)cc3n2)c2cc(Br)ccc21 [Example 330] in the records?
< 7 µg/mL

====

system: Streptococcus pneumoniae; assay: Determination of MIC values (BHI broth, 96 well microtiter plate); format: cell-based; conditions: Streptococcus pneumoniae; BHI broth, 37° C., about 16 hours; read-out: MIC S. pneu
measurement label: MIC

INSERT INTO results (compound, result) VALUES
  ('NCCCCNC(=O)c1cc(-c2c[nH]c3cc(F)ccc23)nc2cc(F)ccc12', '< 25 mg/L'),
  ('CN(CC#Cc1ccc2nc(-c3cn(C)c4ccc(Br)cc34)cc(C(=O)NCCN)c2c1)C1CCCCC1', '< 7 mg/L'),
  ('Cn1cc(-c2cc(C(=O)NCCN)c3cc(C#CCN4CCCCC4)c(Cl)cc3n2)c2cc(Br)ccc21', '< 7 mg/L'),
  ('Cc1[nH]c2ccc(Cl)cc2c1-c1cc(Cl)c2ccc(Cl)cc2n1', '< 7 mg/L'),
  ('NCCNC(=O)c1cc(-c2c[nH]c3ccc(Br)cc23)nc2cc(Cl)ccc12', '< 7 mg/L');

Which value of MIC has been reported for Cc1cccc2ccc(-c3c[nH]c4cc(Cl)ccc34)nc12 in the records?
< 25 mg/L

Which value of MIC has been reported for COc1ccc2nc(-c3c[nH]c4ccc(OCc5ccccc5)cc34)ccc2c1 in the records?
> 25 mg/L

====

system: Streptococcus pneumoniae; assay: Determination of MIC values (BHI broth, 96 well microtiter plate); type: cell-based; details: Streptococcus pneumoniae; S. pneu; BHI broth, overnight 37° C.; read-out: MIC S. pneu
measurement label: MIC

INSERT INTO assay_data (mol_smiles, result) VALUES
  ('Cn1cc(-c2cc(C(=O)NCc3cccc(CN)c3)c3cc(Cl)ccc3n2)c2cc(Br)ccc21', '> 25 mg/L'),
  ('CC(=O)Oc1cccc2[nH]cc(-c3ccc4cc(Cl)ccc4n3)c12', '< 7 mg/L'),
  ('O=[N+]([O-])c1ccc2[nH]cc(-c3cc(Cl)c4ccccc4n3)c2c1', '> 25 mg/L'),
  ('NCCNC(=O)c1cc(-c2c[nH]c3ccc(Br)cc23)nc2c(Br)cccc12', '< 7 mg/L'),
  ('Clc1cc(-c2c[nH]c3c(Cl)cccc23)nc2ccccc12', '< 7 mg/L');

Which value of MIC has been reported for CCOC(=O)n1cc(-c2cc(C(=O)NCc3ccc(CN)cc3)c3cc(C#CCN4CCCCC4)ccc3n2)c2cc(Br)ccc21 in the records?
> 25 mg/L

Which value of MIC has been reported for Clc1cc(-c2c[nH]c3c(Br)cccc23)nc2ccccc12 in the records?
< 25 mg/L
